Provenance of the data: patent US8829200B2

testTarget: recombinant human FLAP protein (Homo sapiens (Human), UniProt P20292)
Sequence (P20292 whole entry): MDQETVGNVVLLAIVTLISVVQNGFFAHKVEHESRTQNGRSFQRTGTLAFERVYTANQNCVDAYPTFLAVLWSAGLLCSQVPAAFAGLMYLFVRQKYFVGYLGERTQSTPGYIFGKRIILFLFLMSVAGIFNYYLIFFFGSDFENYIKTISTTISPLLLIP
measurementNotes: FLAP binding assay (Scintillation Proximity Assay)
condition: displacement of [125I]L-691,831, membranes of sf9 cells expressing human FLAP; read-out: SPA IC50
pIC50: −log10 of the molar value.
Would you mind labelling by pIC50? At or over 7 is y, under is n.

Take a look at these entries with their results.
COC(=O)c1ccccc1-c1nc2cc(-c3cnc(N)nc3)ccc2n1C(C)(C)C [Example 17]
y
CN(C(=O)c1ccccc1-c1nc2cc(-c3cnc(N)nc3)ccc2n1C(C)(C)C)c1ccccn1 [Example 27]
n
CC(C)(C)n1c(-c2cc(C#N)ccc2C(=O)NC#N)nc2cc(-c3cnc(N)nc3)ccc21 [Example 10]
y
CN(C)C(=O)c1ccccc1-c1nc2cc(-c3cnc(N)nc3)ccc2n1C(C)(C)C [Example 29]
n
CC(C)(C)n1c(-c2cc(C(=O)O)ccc2F)nc2cc(-c3cnc(N)nc3)ccc21 [Example 15]
n

Given CC(C)(C)n1c(-c2cccc(C(=O)O)c2)nc2cc(-c3cnc(N)nc3)ccc21 [Example 16] , state whether its pIC50 is at least 7.
n

Given CC(C)(C)n1c(-c2ccccc2C(=O)N2CCOCC2)nc2cc(-c3cnc(N)nc3)ccc21 [Example 28] , state whether its pIC50 is at least 7.
n

----------
testTarget: recombinant human FLAP protein (Homo sapiens (Human))
measurementNotes: FLAP binding assay (Scintillation Proximity Assay)
condition: displacement of [125I]L-691,831, membranes of sf9 cells expressing human FLAP; read-out: SPA IC50
pIC50: −log10 of the molar value.
Would you mind labelling by pIC50? At or over 8 is Condition met, under is Condition not met.

Take a look at these entries with their results.
COCCNC(=O)c1ccccc1-c1nc2cc(-c3cnc(N)nc3)ccc2n1C(C)(C)C
Condition not met
CC(C)(C)n1c(-c2ccccc2C(=O)Nc2ccccn2)nc2cc(-c3cnc(N)nc3)ccc21
Condition met
CC(C)(C)n1c(-c2ccccc2C(=O)Nc2cccnc2)nc2cc(-c3cnc(N)nc3)ccc21
Condition met

Given `COc1cncc(-c2ccc3c(c2)nc(-c2cccc(C(N)=O)c2)n3C(C)(C)C)c1` , state whether its pIC50 is at least 8.
Condition not met

Given `CC(C)(C)n1c(-c2cc(C#N)ccc2C(=O)NS(C)(=O)=O)nc2cc(-c3cnc(N)nc3)ccc21` , state whether its pIC50 is at least 8.
Condition not met

Given `CC(C)(C)n1c(-c2ccccc2C(=O)NC2CCNCC2)nc2cc(-c3cnc(N)nc3)ccc21` , state whether its pIC50 is at least 8.
Condition not met

Given `CC(C)NC(=O)c1ccccc1-c1nc2cc(-c3cnc(N)nc3)ccc2n1C(C)(C)C` , state whether its pIC50 is at least 8.
Condition not met

Given `CC(C)(C)n1c(-c2ccccc2C(=O)O)nc2cc(-c3cnc(N)nc3)ccc21` , state whether its pIC50 is at least 8.
Condition not met

Given `CC(C)(C)n1c(-c2ccccc2C(=O)NC2CC2)nc2cc(-c3cnc(N)nc3)ccc21` , state whether its pIC50 is at least 8.
Condition not met

Given `CNC(=O)c1cc(OC)ccc1-c1nc2cc(-c3cnc(N)nc3)ccc2n1C(C)(C)C` , state whether its pIC50 is at least 8.
Condition not met

Given `CNC(=O)c1ccc(F)cc1-c1nc2cc(-c3cnc(N)nc3)ccc2n1C(C)(C)C` , state whether its pIC50 is at least 8.
Condition met

Given `CNC(=O)c1cc(F)ccc1-c1nc2cc(-c3cnc(N)nc3)ccc2n1C(C)(C)C` , state whether its pIC50 is at least 8.
Condition not met

----------
testTarget: recombinant human FLAP protein (Homo sapiens (Human), UniProt P20292)
measurementNotes: FLAP binding assay (Scintillation Proximity Assay)
condition: displacement of [125I]L-691,831, membranes of sf9 cells expressing human FLAP; read-out: SPA IC50
pIC50: −log10 of the molar value.
Would you mind labelling by pIC50? At or over 8 is t, under is f.

CN(C)CCNC(=O)c1ccccc1-c1nc2cc(-c3cnc(N)nc3)ccc2n1C(C)(C)C
f
CC(C)(C)n1c(-c2ccccc2C(=O)NCC2CCCO2)nc2cc(-c3cnc(N)nc3)ccc21 (centres unmarked)
f
CN(C)C(=O)c1ccc(F)c(-c2nc3cc(-c4cnc(N)nc4)ccc3n2C(C)(C)C)c1
f

Given `CCNC(=O)c1ccccc1-c1nc2cc(-c3cnc(N)nc3)ccc2n1C(C)(C)C` , state whether its pIC50 is at least 8.
f

Given `CC(C)(C)n1c(-c2ccccc2C(=O)Nc2ccncc2)nc2cc(-c3cnc(N)nc3)ccc21` , state whether its pIC50 is at least 8.
t

----------
testTarget: recombinant human FLAP protein (Homo sapiens (Human))
measurementNotes: FLAP binding assay (Scintillation Proximity Assay)
condition: displacement of [125I]L-691,831, membranes of sf9 cells expressing human FLAP; read-out: SPA IC50
Below, each entry is listed with its recorded pIC50.
Conceptually, pIC50 converts a concentration in mol/L into minus its log10.

Study these solved cases before continuing.
CC(C)(C)NC(=O)c1ccccc1-c1nc2cc(-c3cnc(N)nc3)ccc2n1C(C)(C)C
7.83
CNC(=O)c1ccc(C#N)cc1-c1nc2cc(-c3cnc(N)nc3)ccc2n1C(C)(C)C
8.13
CNC(=O)c1ccccc1-c1nc2cc(-c3cnc(N)nc3)ccc2n1C(C)(C)C
7.94

Attention now turns to another entry.
# molecule `CNC(=O)c1cccc(F)c1-c1nc2cc(-c3cnc(N)nc3)ccc2n1C(C)(C)C` ; its pIC50 = 7.80
